- target_system: binding partner of C5A (XPA23)
- assay: Biacore, K-off
measure_name: fold difference in affinity vs original (fold)
Numbers only, in fold.

* C5A (XPA23) VH M57N (antibody, V domains shown) VH: EVQLLESGGGLVQPGGSLRLSCAASGFTFSKYFMFWVRQAPGKGLEWVSVISPSGGNTRYADSVKGRFTISRDNSKNTLYLQMNSLRAEDTAVYYCARVGYGGNSDYWGQGTLVTVSS VL: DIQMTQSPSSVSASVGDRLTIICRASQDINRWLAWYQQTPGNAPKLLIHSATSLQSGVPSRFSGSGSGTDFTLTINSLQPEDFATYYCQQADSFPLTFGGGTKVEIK | 0.03

Let us move to another entry and its fold difference in affinity vs original.
Inquiry: Using the record for C5A (XPA23) VH V50T (antibody, V domains shown) VH: EVQLLESGGGLVQPGGSLRLSCAASGFTFSKYFMFWVRQAPGKGLEWVSTISPSGGMTRYADSVKGRFTISRDNSKNTLYLQMNSLRAEDTAVYYCARVGYGGNSDYWGQGTLVTVSS VL: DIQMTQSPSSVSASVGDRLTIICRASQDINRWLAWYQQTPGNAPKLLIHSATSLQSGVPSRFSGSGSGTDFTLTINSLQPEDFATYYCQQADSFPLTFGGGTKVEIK , report its fold difference in affinity vs original.
Reply text: 0.03
